Origin of the recorded values: ChEMBL document CHEMBL1158162

# method notes: Antagonist activity at NPS Ile107 mutant receptor expressed in RD-HGA16 cells assessed by calcium mobilization by FlexStation assay
# Assay type: functional
quantity kind: Ke

[[record]]
compound = "O=C(CCc1ccc(F)cc1)N1CCN2C(=O)OC(c3ccccc3)(c3ccccc3)C2C1 (centres undefined)"
test_result = "339 nM"

[[record]]
compound = "O=C(COc1ccc(F)cc1)N1CCN2C(=O)OC(c3ccccc3)(c3ccccc3)C2C1 (centres undefined)"
test_result = "244 nM"

[[record]]
compound = "O=C(NCCCCc1ccccc1)N1CCN2C(=O)OC(c3ccccc3)(c3ccccc3)C2C1 (centres undefined)"
test_result = "537 nM"

[[record]]
compound = "CN1CCN2C(=O)OC(c3ccccc3)(c3ccccc3)C2C1 (centres undefined)"
test_result = "> 4000 nM"

[[record]]
compound = "O=C(NCc1ccc(F)cc1)N1CCN2C(=O)OC(c3ccccc3)(c3ccccc3)C2C1 (centres undefined)"
test_result = "13.7 nM"

[[record]]
compound = "O=C(NCCc1ccc(F)cc1)N1CCN2C(=O)OC(c3ccccc3)(c3ccccc3)C2C1 (centres undefined)"
test_result = "321 nM"

[[record]]
compound = "O=C(NCc1ccccc1)N1CCN2C(=O)OC(c3ccccc3)(c3ccccc3)C2C1 (centres undefined)"
test_result = "9.9 nM"

[[record]]
compound = "O=C(NCCc1ccc2c(c1)OCO2)N1CCN2C(=O)OC(c3ccccc3)(c3ccccc3)C2C1 (centres undefined)"
test_result = "567 nM"

[[record]]
compound = "O=C(NCCN1CCCCC1)N1CCN2C(=O)OC(c3ccccc3)(c3ccccc3)C2C1 (centres undefined)"
test_result = "109 nM"

[[record]]
compound = "N[C@H](Cc1ccccc1)C(=O)N1CCN2C(=O)OC(c3ccccc3)(c3ccccc3)C2C1 (some centres undefined)"
test_result = "911 nM"

[[record]]
compound = "O=C1OC(c2ccccc2)(c2ccccc2)C2CN(C(=S)NCCN3CCOCC3)CCN12 (centres undefined)"
test_result = "3760 nM"

[[record]]
compound = "O=C1OC(c2ccccc2)(c2ccccc2)C2CN(CCCCc3ccc(F)cc3)CCN12 (centres undefined)"
test_result = "1110 nM"

[[record]]
compound = "O=C(NCCCc1ccccc1)N1CCN2C(=O)OC(c3ccccc3)(c3ccccc3)C2C1 (centres undefined)"
test_result = "309 nM"

[[record]]
compound = "CCOC(=O)CNC(=O)N1CCN2C(=O)OC(c3ccccc3)(c3ccccc3)C2C1 (centres undefined)"
test_result = "726 nM"

[[record]]
compound = "O=C(O)CNC(=O)N1CCN2C(=O)OC(c3ccccc3)(c3ccccc3)C2C1 (centres undefined)"
test_result = "> 4000 nM"

[[record]]
compound = "CN(Cc1ccc(F)cc1)C(=O)N1CCN2C(=O)OC(c3ccccc3)(c3ccccc3)C2C1 (centres undefined)"
test_result = "214 nM"

[[record]]
compound = "O=C1OC(c2ccccc2)(c2ccccc2)C2CN(C(=S)NCCN3CCCCC3)CCN12 (centres undefined)"
test_result = "280 nM"

[[record]]
compound = "C[C@@H](NC(=O)N1CCN2C(=O)OC(c3ccccc3)(c3ccccc3)C2C1)c1ccccc1 (some centres undefined)"
test_result = "317 nM"

[[record]]
compound = "O=C(OCc1ccccc1)N1CCN2C(=O)OC(c3ccccc3)(c3ccccc3)C2C1 (centres undefined)"
test_result = "354 nM"

